# Tested on: 624824-186-R-J3-PDC multicell spheroids, viability
# measurement-notes: Anticancer human tumor 624824-186-R-J3-PDC patient-derived colon adenocarcinoma cell line growth inhibition [PI3K]
# measurement-setup: second compound 0.316 µM; first compound 0.316 µM; active compounds read low
# Source text: Combinatorial screen of targeted agents with the PI3K inhibitors inavolisib, alpelisib, duvelisib, and copanlisib in multi-cell type tumor spheroids A high-throughput screen of multi-cell type tumor spheroids was designed to identify active combinations of targeted small molecules and PI3K pathway inhibitors. […] Compounds. […] If the clinical Cmax for an agent had not been determined, the highest concentration tested was 10 microM. […]
Each record here notes measured viability, T/C.
Reply numerically in %, unit not repeated.

See these solved cases before continuing.
compound	viability, T/C, %
C#Cc1c(F)ccc2cc(O)cc(-c3ncc4c(N5CC6CCC(C5)N6)nc(OCC56CCCN5CC(F)C6)nc4c3F)c12 (stereo not given) + CC(Nc1ccc2c(c1)OCCn1cc(N3C(=O)OCC3C(F)F)nc1-2)C(N)=O	103
Cn1ncc(Cl)c1-c1cc(C(=O)NC(CN)Cc2cccc(F)c2)sc1Cl (stereo not given) + COc1c(OCCCN2CCOCC2)ccc2c3n(c(=NC(=O)c4cnc(N)nc4)nc12)CCN3	51.5
C[C@@H](NC(=O)c1ncnc(N)c1Cl)c1ncc(C(=O)Nc2cc(C(F)(F)F)c(Cl)cn2)s1 + Cc1nc(NC(=O)N2CCCC2C(N)=O)sc1-c1ccnc(C(C)(C)C(F)(F)F)c1	99

Item CNC(=O)c1ccc(N2C(=S)N(c3ccc(C#N)c(C(F)(F)F)c3)C(=O)C2(C)C)cc1F + CC(Nc1ncnc2nc[nH]c12)c1cc2cccc(Cl)c2c(=O)n1-c1ccccc1 : provide viability, T/C
105

Tell us which viability, T/C value is on record for CNC(=O)c1ccc(N2C(=S)N(c3ccc(C#N)c(C(F)(F)F)c3)C(=O)C2(C)C)cc1F + CC(Nc1ccc2c(c1)OCCn1cc(N3C(=O)OCC3C(F)F)nc1-2)C(N)=O
94.2

====

# System: 624824-186-R-J3-PDC multicell spheroids, viability
# measurement-notes: Anticancer human tumor 624824-186-R-J3-PDC cell line growth inhibition [PI3K];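 note: luminescent signal used as a stand-in for spheroid viability; spheroids exposed to agents for seven days before luminescence read; percent viability relative to DMSO vehicle control wells taken as 100%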
# measurement-setup: second compound 0.1 µM; first compound 0.1 µM; active compounds read low
Reported viability, T/C values for a set of compounds
Number only, in %; omit the unit.

Some entries whose results are on file:
compound	viability, T/C (%)
C#Cc1c(F)ccc2cc(O)cc(-c3ncc4c(N5CC6CCC(C5)N6)nc(OCC56CCCN5CC(F)C6)nc4c3F)c12 (stereo not given) + COc1c(OCCCN2CCOCC2)ccc2c3n(c(=NC(=O)c4cnc(N)nc4)nc12)CCN3	73.7
CC(=O)c1c(C)c2cnc(Nc3ccc(N4CCNCC4)cn3)nc2n(C2CCCC2)c1=O + CC(Nc1ncnc2nc[nH]c12)c1cc2cccc(Cl)c2c(=O)n1-c1ccccc1	111

Entry CC(C)NCC(C(=O)N1CCN(c2ncnc3c2C(C)CC3O)CC1)c1ccc(Cl)cc1 (stereo not given) + CC(Nc1ccc2c(c1)OCCn1cc(N3C(=O)OCC3C(F)F)nc1-2)C(N)=O needs its viability, T/C filled in; supply it.
94.1

Return the recorded viability, T/C value; entry: CC1(C)CCC(CN2CCN(c3ccc(C(=O)NS(=O)(=O)c4ccc(NCC5CCOCC5)c([N+](=O)[O-])c4)c(Oc4cnc5[nH]ccc5c4)c3)CC2)=C(c2ccc(Cl)cc2)C1 + COc1c(OCCCN2CCOCC2)ccc2c3n(c(=NC(=O)c4cnc(N)nc4)nc12)CCN3
83.8

Specify measured viability, T/C for CC1(C)CCC(CN2CCN(c3ccc(C(=O)NS(=O)(=O)c4ccc(NCC5CCOCC5)c([N+](=O)[O-])c4)c(Oc4cnc5[nH]ccc5c4)c3)CC2)=C(c2ccc(Cl)cc2)C1 + CC(Nc1ncnc2nc[nH]c12)c1cc2cccc(Cl)c2c(=O)n1-c1ccccc1 .
92.4

Cited source for all entries: PubChem BioAssay AID1963977
